# study_target: T1, HLA-A*0201 on T2 cells (human)
# T1 construct: the class I molecule on T2 cells that the added peptide stabilises; also called HLA-A2; HLA-A2 molecules
# test_details: T2 cell HLA-A*0201 stabilisation; 100 µM peptide overnight, Brefeldin A, BB7.2 mAb staining, flow cytometry; MFI minus no-peptide control
experimental_readout: MFI (0 hour) (MFI)
Report the value in MFI with no unit label.

# lookup: MFI (0 hour) of LLFIILMPLV (Free peptide added to T2 cells; also called peptide 117) [CD133-117]
5.5

Would you kindly share the measured MFI (0 hour) for SLNDPLCLV (Free peptide added to T2 cells; also called peptide 301) [CD133-301] ?
10.7

I'd like to know its MFI (0 hour). The binder in question is GLLERVTRI (Free peptide added to T2 cells; also called peptide 708) [CD133-708]
13.1

Sample ILSAFSVYV (Free peptide added to T2 cells) [CD133-405] — what was its MFI (0 hour)?
79.7

Given the entry FLLPALIFAV (Free peptide added to T2 cells; also called peptide 804) [CD133-804] , report its measured MFI (0 hour).
89

Reference source for all entries: patent US20130183378A1
